Assay: Metabolic stability in mouse liver microsomes
Format: in vitro ADME, CD-1 mice
Conditions: CD-1, 0.5 mg protein/mL
Protocol: According to standard methods of in vitro metabolic stability studies in the art, eg., the methods described in Kerns, Edward H. and Di Li (2008). Drug-like Properties: Concepts, Structure Design and Methods: from ADME to Toxicity Optimization. […] Sample treatment (n=3): each appropriate sample was added, vortexed and centrifuged at high speed. The supernatants were collected, and the substrate was detected by HPLC-MS/MS. […]
QUANTITY: microsomal CLint (µL/min/mg)
Record the value in µL/min/mg, omitting the unit from your answer.

>  <COMPOUND>
COCC(C(=O)Nc1cc(Cl)c(-c2ccc(S(C)(=O)=O)cc2)c(Cl)c1)c1ccc(S(=O)(=O)CC2CC2)cc1 (stereo not drawn) [Example 18]

>  <UNIT OF MEASURE>
µL/min/mg

>  <microsomal CLint>
57.6

$$$$
>  <COMPOUND>
CCS(=O)(=O)c1ccc(-c2c(Cl)cc(NC(=O)C(COC)c3ccc(S(C)(=O)=O)cc3)cc2Cl)cc1 (stereo not drawn) [Example 19]

>  <UNIT OF MEASURE>
µL/min/mg

>  <microsomal CLint>
47.4

$$$$

Next, consider the following compound.
Sample CCS(=O)(=O)c1ccc(CC(=O)Nc2cc(Cl)c(-c3ccc(S(=O)(=O)CC)cc3)c(Cl)c2)cc1 [Example 1] — what was its microsomal CLint?
67.6
